Test system: MX-1 (breast carcinoma)
Assay remarks: Cytotoxicity/growth inhibition assay, MX-1
Assay type: cell-based, human
Settings: MX-1 cells, 3 days culture, CellTiter-Glo, 0.1-200 μM tested; read-out: IC50 (MX-1)
Parameter measured: log10(IC50) (log10 of the value in µM)
Parameter value (number): base-10 log of IC50 in µM.

Ask | Please list log10(IC50) recorded for the compound CC(C)NC(=O)[C@H](CS(=O)(=O)CCOP(=O)(N(CCCl)CCCl)N(CCCl)CCCl)NC(=O)OC(C)(C)C [Compound 84A]
Reply | 1.03

Ask | Please list log10(IC50) recorded for the compound O=P(OCCS(=O)(=O)CCCS(=O)(=O)CCOP(=O)(N(CCCl)CCCl)N(CCCl)CCCl)(N(CCCl)CCCl)N(CCCl)CCCl [Compound 3B]
Reply | 0.87

Ask | Please list log10(IC50) recorded for the compound O=P(OCCS(=O)(=O)Cc1ccco1)(N(CCCl)CCCl)N(CCCl)CCCl [Compound 179A]
Reply | 0.86

Ask | Please list log10(IC50) recorded for the compound O=C(c1ccc(CS(=O)(=O)CCOP(=O)(N(CCCl)CCCl)N(CCCl)CCCl)cc1)N(CCO)CCO [Compound 169A]
Reply | 1.54

Ask | Please list log10(IC50) recorded for the compound N[C@@H](CS(=O)(=O)CCOP(=O)(N(CCCl)CCCl)N(CCCl)CCCl)C(=O)OCc1ccccc1 [Compound 82A]
Reply | 1.45

Ask | Please list log10(IC50) recorded for the compound O=P(OCCS(=O)(=O)Cc1ccc(Cl)cc1)(N(CCCl)CCCl)N(CCCl)CCCl [Compound 131A]
Reply | 0.72

Ask | Please list log10(IC50) recorded for the compound NC(=O)CC(NC(=O)CS(=O)(=O)CCOP(=O)(N(CCCl)CCCl)N(CCCl)CCCl)C(=O)O (centres unmarked) [Compound 65A]
Reply | 1.50

Ask | Please list log10(IC50) recorded for the compound O=[N+]([O-])c1cc(CS(=O)(=O)CCOP(=O)(N(CCCl)CCCl)N(CCCl)CCCl)cc(CS(=O)(=O)CCOP(=O)(N(CCCl)CCCl)N(CCCl)CCCl)c1 [Compound 16B]
Reply | 0.46

Ask | Please list log10(IC50) recorded for the compound CN(CC(=O)OC(C)(C)C)C(=O)CS(=O)(=O)CCOP(=O)(N(CCCl)CCCl)N(CCCl)CCCl [Compound 28A]
Reply | 0.95

Ask | Please list log10(IC50) recorded for the compound CCNC(=O)CCS(=O)(=O)CCOP(=O)(N(CCCl)CCCl)N(CCCl)CCCl [Compound 54A]
Reply | 0.97

Ask | Please list log10(IC50) recorded for the compound N#Cc1ccc(S(=O)(=O)N[C@@H](CS(=O)(=O)CCOP(=O)(N(CCCl)CCCl)N(CCCl)CCCl)C(=O)NCc2ccccc2)cc1 [Compound 99A]
Reply | 1.21

----------
Tested on: MX-1 (breast carcinoma)
Assay remarks: Cytotoxicity/growth inhibition assay, MX-1
Type: cell-based, human
Settings: MX-1 cells, 3 days culture, CellTiter-Glo, 0.1-200 μM tested; read-out: IC50 (MX-1)
Just a reminder that ties go to not met: only IC50 strictly below 20 µM counts as met.

Ask | Is 20 µM strictly greater than the molecule's reported IC50? molecule: CC(NC(=O)CS(=O)(=O)CCOP(=O)(N(CCCl)CCCl)N(CCCl)CCCl)C(=O)OC(C)(C)C (stereo not drawn) [Compound 44A]
Reply | not met

Ask | Is 20 µM strictly greater than the molecule's reported IC50? molecule: CC(C)CCS(=O)(=O)CCOP(=O)(N(CCCl)CCCl)N(CCCl)CCCl [Compound 9A]
Reply | met

Ask | Is 20 µM strictly greater than the molecule's reported IC50? molecule: COCCNC(=O)CCS(=O)(=O)CCOP(=O)(N(CCCl)CCCl)N(CCCl)CCCl [Compound 57A]
Reply | met

Ask | Is 20 µM strictly greater than the molecule's reported IC50? molecule: O=P(OCCS(=O)(=O)c1ccncc1)(N(CCCl)CCCl)N(CCCl)CCCl [Compound 120A]
Reply | met

Ask | Is 20 µM strictly greater than the molecule's reported IC50? molecule: O=C(c1ccco1)N1CCN(C(=O)[C@H](CS(=O)(=O)CCOP(=O)(N(CCCl)CCCl)N(CCCl)CCCl)NS(=O)(=O)c2ccccc2)CC1 [Compound 93A]
Reply | met

Ask | Is 20 µM strictly greater than the molecule's reported IC50? molecule: CC(C)(C)OC(=O)[C@@H](Cc1ccccc1)NC(=O)CS(=O)(=O)CCOP(=O)(N(CCCl)CCCl)N(CCCl)CCCl [Compound 25A]
Reply | met

----------
System: MX-1 (breast carcinoma)
Assay remarks: Cytotoxicity/growth inhibition assay, MX-1
Format: cell-based, human
Settings: MX-1 cells, 3 days culture, CellTiter-Glo, 0.1-200 μM tested; read-out: IC50 (MX-1)
Could you please report measured IC50 for the items listed next?
Lab book: enter the figure in µM, no units written.

Ask | Please list IC50 recorded for the compound COC(=O)[C@H](CS(=O)(=O)CCOP(=O)(N(CCCl)CCCl)N(CCCl)CCCl)NS(=O)(=O)c1ccc(Cl)cc1 [Compound 81A]
Reply | 33.3

Ask | Please list IC50 recorded for the compound CCNC(=O)c1ccc(CS(=O)(=O)CCOP(=O)(N(CCCl)CCCl)N(CCCl)CCCl)cc1 [Compound 163A]
Reply | 4.8

Ask | Please list IC50 recorded for the compound O=C(O)[C@H](CS(=O)(=O)CCOP(=O)(N(CCCl)CCCl)N(CCCl)CCCl)NS(=O)(=O)c1ccccc1 [Compound 103A]
Reply | 18.2

Ask | Please list IC50 recorded for the compound NCC(=O)Nc1cc(CS(=O)(=O)CCOP(=O)(N(CCCl)CCCl)N(CCCl)CCCl)cc(CS(=O)(=O)CCOP(=O)(N(CCCl)CCCl)N(CCCl)CCCl)c1 [Compound 19B]
Reply | 7.6

----------
Test system: MX-1 (breast carcinoma)
Assay remarks: Cytotoxicity/growth inhibition assay, MX-1
Type: cell-based, human
Settings: MX-1 cells, 3 days culture, CellTiter-Glo, 0.1-200 μM tested; read-out: IC50 (MX-1)
Parameter measured: pIC50
pIC50 field: float, defined as -log10 of concentration (mol/L).

Ask | Please list pIC50 recorded for the compound CC(C)(C)OC(=O)NCCCC[C@H](NC(=O)CS(=O)(=O)CCOP(=O)(N(CCCl)CCCl)N(CCCl)CCCl)C(=O)OC(C)(C)C [Compound 27A]
Reply | 5.21

Ask | Please list pIC50 recorded for the compound O=C(c1ccc(CS(=O)(=O)CCOP(=O)(N(CCCl)CCCl)N(CCCl)CCCl)cc1)N1CCOCC1 [Compound 154A]
Reply | 5.26

Ask | Please list pIC50 recorded for the compound CC(=O)NC(C(=O)O)C(C)(C)S(=O)(=O)CCOP(=O)(N(CCCl)CCCl)N(CCCl)CCCl (centres unmarked) [Compound 74A]
Reply | 4.33

Ask | Please list pIC50 recorded for the compound O=C(CS(=O)(=O)CCOP(=O)(N(CCCl)CCCl)N(CCCl)CCCl)Nc1ccc(C(=O)O)cc1 [Compound 33A]
Reply | 4.69

Ask | Please list pIC50 recorded for the compound O=C(CS(=O)(=O)CCOP(=O)(N(CCCl)CCCl)N(CCCl)CCCl)Nc1ccc([N+](=O)[O-])c(C(F)(F)F)c1 [Compound 21A]
Reply | 5.38
